experiment: yeast display, Sf9 membrane polyspecificity reagent, FACS + sequencing; frameworks hold sequencing errors
outcome_measure: polyreactivity (PSR sort gate)

QVQHVESVGGIVQAGGSLRLICAASGFIFVGYAMGWYRQAPGKERELVAAISTSGGRTYYADSVKGRFTISRDNAKNTVYLQLNSLKPEDTAVYYCAAKRPGCIQYSYYYWGQGTQVTVSS: high polyreactivity
QVQLVESGGGLVQAGGSLRLSCAASGRIFTKYAMGWYRQAPGKERELVATITRNGGSTYYADSVKGRFTISRDNAKNTVYLQMNSLKPEDTAVYYCAADKRYKLDYWGQGTQVTVSS: high polyreactivity
QVQLVESGGGLVQAGGSLRLSCAASGSNFGEYAMGWYIQAPGKERELVAAISYRGGSTYYADSVKGRFTISRDNAKNTVYLQMNSLKPEDTAVYYCNRDRRRRGAYGRPGGDHWGQGTQVTVSS: high polyreactivity

* * *

assay: yeast display, Sf9 membrane polyspecificity reagent, FACS + sequencing; frameworks hold sequencing errors
outcome_measure: polyreactivity (PSR sort gate)

Examples from the recorded data:
QVQLLESGGGLVQAGRSLRLSCAASGSIFWYAMGWYRQAPGKERELVATITSGASTTYADSVKGRFTISRDNAKNTVYLQMNSLNPEDTAVYYCAKRNYLSYRYDYWGQGTQVNVSS: low polyreactivity
QVQLVESGGGLVQAGGSLRLSCAASGRIFRYNAMGWYRQAPGKERELVASISSGTSTTYADSVKGRFTISRDYAKNTVYLQMNSLKPEDTAVYYCAAVPSYRGYRGGYSNLWYYYWGQGTQVTVSS: high polyreactivity
QVQLVESGGGLVQAGGSLRLSCAASGRTFSYYAMGWYRQAPGKEREFVAAISSTGTSTYYADSVKGRFTISRDNAKNTVYLQMNSLKPEDTAVYYCNARVATYRLHSKFYYWGQGTQVTVSS: high polyreactivity
QVQLEESGGGLVQAGGSLRLSCAASGYTFYRYTMGWYRQAPGKERELVAAISSRGGSKYYADSVKGRFTISRDNAKNTVYLQMNSLKPEDTAVYFCARKYPRKTLSKGFDYWGQGTQVTVSS: high polyreactivity
QVQLVESGGGLVQAGGSLRLSCAASGIIFGSNAMGWYRQAPGKERELVAAISYSGASTYYADSVKGRFTISRDNAKNTVYLQMNSLKPEDTAVYYCATYSRWDYGYWGQGTQVTVSS: high polyreactivity

Lab note: each sequence below needs its polyreactivity (PSR sort gate) filled in.
1. QVKLVESGRALVQAGCSLPLSCAASGRIFTRYAMGWYRQAPGKERELVAAISYGGGGTYYADSVKGSFTISRDNAKNTVYVQMNSLKPEDTAVYYCATDDPLSQINEQGMDYWGQGTQVTVSS
2. QVQLVESGGGLDQAGGSLRLSCAASGLTLAVNAMGCYRQAPGKERELVAAISRRGGSTYYADSVKGRFTISRDNSKNPVYLQMNSLKPEDTAVYYCAAKYNYSEMDSWGQGTQVTVSS
3. QVQLVESGGGLVQAGGRLRLRCAASGHIFYYYTLGWYRQAPGKERELVAGITIGGSTNYADSVKGRFTISRDNAKNTVYLQMNSLKPEDTAVYYCNVVKYVYIYSYWEYYYWGQGTQVTVSS
4. QVQLVESGGGLVQAGGSLRLSCAASGRIFDVYEMGWYRQAPGKERELVAAMTWSGTSTYYADSVKGRFTISRDNAKNTVYLQMNSLKPEDTAVYYCNALSYGRYLNYRGGMDYWGQGTQVTVSS
5. QVQLVESGGGLVQAGGSLRLSCAASGFTFYANAMGWYRQAPGKERELVAAISWSGGRTYYADSVKGRFTISRDNAKNTVYLQMNSLKPEDTAVYYCAAKRWTTKNGFYEYPYYYWGQGTQVTVSS

["low polyreactivity", "high polyreactivity", "low polyreactivity", "high polyreactivity", "high polyreactivity"]

Lab note: each sequence below needs its polyreactivity (PSR sort gate) filled in.
1. QVQLVESGGGLVQAGGSLRLSCAASGSTLWYNARGWYRDAPGKERELVAAITTSTDSTYYADSVKGRFTISRYNAKNTVYLQMNSLKPEDTAVYYCAAVLHLNGGGKAYDYWGLGTQVTVSS
2. QVQLVESGGGLVQAGGTLRLSCAASGSIFTYNAMGWYRQAPGKERELVAAITRSGGRTYYADSVKGRFTISRDNAKNTVYLQMNSLKPEDNAVYYCNTLRVGWGQGTQVTVSS

["low polyreactivity", "high polyreactivity"]

Lab note: each sequence below needs its polyreactivity (PSR sort gate) filled in.
1. QVQLVESGGGLVQAGGSLRLSCAASGRTFTRYSMGWYRQAPGKERELVATINSSGDRTYYADSVKGRFTISRDNAKNTVYLQMNSLKPEDTAVYYCAKRWSPYLYGYWGKGTQVTVSS
2. QVQLVESGGGLVQAGGSLRLICAASGRSFIGNAMGWYSQAPGKDREFDAAISRRGGSTYYADSVKGRFTISRDNEKNTVYLQMNSLKPEDTAVYYCAAGQTTTGILTYYYWGQGTQVTGSS
3. QVQLVESGGGLVQAGGSLRLSCAASGGTFQINAMGWYRQAPGKERELVAAISRSGGSTSYADSVKGRFTISRDNAKNTVYLQMNSLKPEDTAVYYCNKRVRATAWYDYWGQGTQVTVSS
4. QVQLVESGGGLVQAGGSLRLSCAASGRTFVKYAMGWYRQAPGKERELVAAISWSGGSTYYADSVKGRFTISRDKAKNTVYLQMNSLKPEDTAVYYCAAPSSRGQGRNFDYWGQGTQVTVSS
5. QVQLVESGGGLVQAGGSLRLSCAASGRIFGGYAMGWYRQAPGKERELVAAITSAGGTNYADSVKGRFTISRDNAKNTVYLQMNSLKPEDTAVYYCAALRDRDITVYYDTGRMYYWGQGTQVTVSS
6. QVQLVESGGGLVQAGGSLRLSCAASGIIFIYNAMGWYRQAPGKERELVGAIRRSGSPSYADSVKGRFTISRDNAKNTVYLQMNSLKPEDTAVYYCAADTSTWFGAYYLRDPYDYWGQGTQVTVSS
7. QVQLVESGGGLVQAGGSLRLSCDASGRIYLYAMGWYRQAPGKERELVAAITTRAGRTYYADSVKGRFTISRDNAKNTVYFQMNSLKPEDNAVSYCAADGTRYPAYGYWGQGTQVTVSS
8. QVQLVESGGGLVQAGGSLRLSCAASGRIFVHYAMGWYRQAPGKERELVAAISRSGGSTYYADSVKGRFTISRDTAKNTVYLQMNSLKPEDTAVYYCNTYPLSQFGPYWSGYDYWGQGTQVTVSS

["high polyreactivity", "high polyreactivity", "high polyreactivity", "high polyreactivity", "low polyreactivity", "low polyreactivity", "low polyreactivity", "high polyreactivity"]

Param item = `QVQLVESGGGLVQAGGSLRLSCAASGSTFSKYAMGWYRPAPGKERELVAAISSRGGSTYYADSVKGRFTISRDNAKNTVYLQMNSLKPEDTAVYYCATYYVYKLYYWGQGTQVTVSS` ; retrieve measured polyreactivity (PSR sort gate).
high polyreactivity
